Where these numbers come from: patent US20240174680A1

measurement-target: CDK2/Cyclin E1 (Homo sapiens)
test-details: CDK2/Cyclin E1 Caliper LabChip EZ Reader mobility shift assay
Format: biochemical
Parameters: purchased Eurofins 14-475
condition: read-out: Caliper Assay (CDK2/CCNE1): IC50
Answer each item with its documented IC50.

## Input Given the entry CNC(=O)[C@@H](NC(=O)[C@@H]1CN(C(=O)c2cncs2)CC12CN(C(=O)[C@H]1CC1(C)C)C2)[C@@H](C)OCc1ccccc1 [I-24A] , what IC50 was observed with CDK2/Cyclin E1 (Homo sapiens)?
## Output 100 to 1000 nM

## Input What do we get for C[C@@H](OCC1CCCCC1)[C@@H](COC1CCCNC1)NC(=O)[C@@H]1CN(C(=O)c2cncs2)CC12CN(C(=O)[C@H]1CC1(C)C)C2 (stereo partly drawn) [I-332] ?
## Output ≤ 10 nM

## Input What do we get for CNC(=O)[C@@H](NC(=O)[C@H]1CN(C(=O)c2cncs2)CC12CN(C(=O)C(C)(C)C)C2)[C@@H](C)OCC1CCCCC1 [I-186B] ?
## Output > 10000 nM

## Input What do we get for [2H]C([2H])([2H])NC(=O)C(NC(=O)[C@@H]1CN(C(=O)c2cncs2)CC12CN(C(=O)[C@H]1CC1(C)C)C2)c1cccc(N2CCOCC2)n1 (stereo partly drawn) [I-18] ?
## Output 1000 to 10000 nM

## Input What do we get for CNC(=O)[C@@H](NC(=O)[C@@H]1CN(C(=O)c2cncs2)CC12CN(CC1CCOC1)C2)[C@@H](C)OCC12CCC(CC1)OC2 (stereo partly drawn) [I-345] ?
## Output > 10000 nM

## Input What do we get for CNC(=O)[C@@H](NC(=O)[C@@H]1CN(C(=O)c2nncs2)CC12CN(C(=O)[C@H]1CC1(C)C)C2)[C@@H](C)OCC1CCCCC1 [I-246] ?
## Output 100 to 1000 nM

====

Answer each item with its documented IC50.
measurement-target: CDK2/Cyclin E1 (Homo sapiens)
test-details: CDK2/Cyclin E1 Caliper LabChip EZ Reader mobility shift assay
Format: biochemical
Set-up: purchased Eurofins 14-475
condition: read-out: Caliper Assay (CDK2/CCNE1): IC50

## Input Field request: IC50 | item: C[C@@H](OCc1ccccc1)C(NC(=O)C1CN(C(=O)c2cnn(Cc3ccccc3)c2)CC12CN(C(=O)[C@H]1CC1(C)C)C2)C(=O)NCCOCCOCCO (stereo partly drawn)
## Output 0.01 to 0.1 µM

## Input What do we get for CNC(=O)[C@@H](NC(=O)[C@@H]1CN(C(=O)c2cnn(Cc3ccccc3)c2)CC12CN(C(=O)[C@H]1CC1(C)C)C2)C(C)(C)SCc1ccccc1 [I-171A] ?
## Output 0.1 to 1 µM

## Input What do we get for CNC(=O)C(NC(=O)[C@@H]1CN(C(=O)c2cncs2)CC12CN(C(=O)[C@H]1CC1(C)C)C2)c1nc(C2CCCCC2)co1 (stereo partly drawn) ?
## Output 0.1 to 1 µM

====

Answer each item with its documented IC50.
measurement-target: CDK2/Cyclin E1 (Homo sapiens)
test-details: CDK2/Cyclin E1 Caliper LabChip EZ Reader mobility shift assay
Assay type: biochemical
Parameters: purchased Eurofins 14-475
condition: read-out: Caliper Assay (CDK2/CCNE1): IC50

## Input Field request: IC50 | item: COC(=O)C1(NC(=O)[C@H]2CN(C(=O)c3cnn(Cc4ccccc4)c3)CC23CN(C(=O)[C@H]2CC2(C)C)C3)COC1 [I-142A]
## Output > 10 µM

## Input What do we get for CC1(C)C[C@@H]1C(=O)N1CC2(CN(C(=O)c3cnn(Cc4ccccc4)c3)C[C@@H]2C(=O)Nc2cccc(Cc3ccccc3)c2)C1 [I-75B] ?
## Output 1 to 10 µM

## Input What do we get for CNC(=O)[C@@H](NC(=O)[C@@H]1CN(C(=O)c2cncs2)CC12CN(CC1CCCC1)C2)[C@@H](C)OCC12CCC(CC1)OC2 ?
## Output > 10 µM
